Measured Percentage protection vs. Sal. Choleraesuis, PO by item
- Tested on: Salmonella Choleraesuis
- CONDITION_SUMMARY: mice, PO, 25 mg./kg., multiple dosing; percentage of animals which survive
Your answer is read as %, so omit the unit and give the number.

Past entries and their recorded results:
# COMPOUND, VALUE
measured = [
    ("COC1(c2ccccc2)OCc2c1[n+]([O-])c1ccccc1[n+]2[O-] (centres unmarked)", 30),
    ("O=C(c1ccccc1)c1c(CO)[n+]([O-])c2ccccc2[n+]1[O-]", 80),
    ("CC(=O)OCc1c(C(=O)c2ccccc2)[n+]([O-])c2ccccc2[n+]1[O-]", 50),
    ("CC(=O)SCc1c(C(=O)c2ccccc2)[n+]([O-])c2ccccc2[n+]1[O-]", 30),
]

Exam item: What does the data say about its Percentage protection vs. Sal. Choleraesuis, PO? Entry: CS(=O)(=O)Cc1c(C(=O)c2ccccc2)[n+]([O-])c2ccccc2[n+]1[O-]
Marked response: 60

====

Overview of reported MIC across a group of compounds:
- System: Streptococcus pyogenes
- MEASUREMENT_DESCRIPTION: in vitro antibacterial activity (MIC), two-fold serial dilution in Brain-Heart Infusion broth
- CONDITION_SUMMARY: read-out: MIC Strep pyogenes
The reply should be a number in µg/mL, with the unit left off.

# COMPOUND, MIC, µg/mL
records = [
    ("CS(=O)(=O)Cc1c(C(=O)c2ccccc2)[n+]([O-])c2ccccc2[n+]1[O-]", 12.5),
    ("COC1(c2ccccc2)OCc2c1[n+]([O-])c1ccccc1[n+]2[O-] (centres unmarked)", 25),
    ("CC(=O)OCc1c(C(=O)c2ccccc2)[n+]([O-])c2ccccc2[n+]1[O-]", 12.5),
]

Now, please, on to the next compound.
Exam item: Dear colleague, I am looking for the recorded MIC of the following compound: O=C(c1ccccc1)c1c(CO)[n+]([O-])c2ccccc2[n+]1[O-]
Marked response: 0.78
